Values compiled from patent US20250011363A1.

molecular target: acetylcholine receptor; test: SPR, AchR immobilized on CM5 chip, peptide at 10 uM

BINDER	VALUE UNITS	Binding affinity (RU)
RGQRKK [6mer-2-357]	RU	151
KKMNIK [6mer-1-824]	RU	12
KATMK [5mer-726]	RU	33
RRYMEK [6mer-1-851]	RU	30
